target: Receptor-type tyrosine-protein kinase FLT3 (Homo sapiens, UniProt P36888, ITD); test: biochemical
Sequence (P36888 whole entry, looked up, change not shown): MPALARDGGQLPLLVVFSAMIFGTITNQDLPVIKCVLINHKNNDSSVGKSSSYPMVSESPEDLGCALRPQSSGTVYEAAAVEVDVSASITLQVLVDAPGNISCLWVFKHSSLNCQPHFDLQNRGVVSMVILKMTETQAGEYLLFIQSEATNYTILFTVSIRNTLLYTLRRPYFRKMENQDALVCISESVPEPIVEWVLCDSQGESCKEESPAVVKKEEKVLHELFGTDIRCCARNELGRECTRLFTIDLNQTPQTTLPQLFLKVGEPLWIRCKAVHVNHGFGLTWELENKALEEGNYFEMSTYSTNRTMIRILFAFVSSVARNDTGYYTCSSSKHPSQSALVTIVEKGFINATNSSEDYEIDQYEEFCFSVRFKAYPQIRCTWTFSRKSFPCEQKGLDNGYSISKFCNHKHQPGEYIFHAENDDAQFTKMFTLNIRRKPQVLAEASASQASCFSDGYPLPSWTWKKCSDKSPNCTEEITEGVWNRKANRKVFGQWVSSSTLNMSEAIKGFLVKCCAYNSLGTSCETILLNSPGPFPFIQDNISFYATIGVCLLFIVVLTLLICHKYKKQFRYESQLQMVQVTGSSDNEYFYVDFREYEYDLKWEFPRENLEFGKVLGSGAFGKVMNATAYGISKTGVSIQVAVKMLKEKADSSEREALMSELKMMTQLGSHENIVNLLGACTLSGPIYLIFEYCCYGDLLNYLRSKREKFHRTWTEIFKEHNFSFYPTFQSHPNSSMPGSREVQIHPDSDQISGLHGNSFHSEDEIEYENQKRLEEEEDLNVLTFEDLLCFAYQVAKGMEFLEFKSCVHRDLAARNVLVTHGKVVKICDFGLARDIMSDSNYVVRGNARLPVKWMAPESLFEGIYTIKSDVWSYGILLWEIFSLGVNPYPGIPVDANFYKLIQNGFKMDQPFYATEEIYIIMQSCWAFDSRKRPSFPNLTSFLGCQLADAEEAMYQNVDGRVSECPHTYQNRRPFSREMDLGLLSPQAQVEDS
READOUT_NAME: log10 IC50 (log10 of the value in nM)
Heads up, the numbers here are log10 of IC50 in nM units.

Here are 4 molecules together with their reported answers.
| RECORD_SMILES | READOUT_NAME | NUMBER |
| --- | --- | --- |
| O=C(Nc1ccc(Cl)c(C(F)(F)F)c1)Nc1nnc(Sc2ncnc3oc(-c4ccccc4)cc23)s1 | log10 IC50 | 0.48 |
| COc1ccc(-c2cc3c(Sc4nnc(NC(=O)Nc5ccc(Cl)c(C(F)(F)F)c5)s4)ncnc3o2)cc1 | log10 IC50 | 1.74 |
| O=C(Nc1cccc(F)c1)Nc1nnc(Sc2ncnc3oc(-c4ccccc4)c(-c4ccccc4)c23)s1 | log10 IC50 | 0.60 |
| COc1ccc(-c2cc3c(Sc4nnc(NC(=O)Nc5cccc(Cl)c5)s4)ncnc3o2)cc1 | log10 IC50 | 1.68 |

Okay, next one:
Value of measured log10 IC50 for the entry COc1ccc(-c2cc3c(Sc4nnc(NC(=O)Nc5ccc(Cl)cc5)s4)ncnc3o2)cc1 : 1.34
